Experiment: yeast display, Sf9 membrane polyspecificity reagent, FACS + sequencing; frameworks hold sequencing errors
recorded.metric: polyreactivity (PSR sort gate)

>>> result_value("QVQLVESGGGLVQAGGSLRLSCAASGRTFNWNAMGWYRQAPGKERELVAAITSGGSTYNADSVKGLFTISRDNAKNTVYLQMNSLKPEDTAVYYCAGRINFYRSKYYYWGQGTQVTVSS")
"high polyreactivity"
>>> result_value("QVQLVESGGGLVQAGGSLRLSCAASGSIFPRYAMGWYRQAPGKERELVAAINSGGSTNYADSVKGRFTISRDNAKNTVYLQMHSLKPEDTAVYYCNAVFISYSYRRGPTLYVYWGQGTQVTVSS")
"high polyreactivity"
>>> result_value("QVQLVESGGCLVQAGGRLRLSSAASGRTIGWNAMGWYRQAPGTEREFVAAITISGGDTYYADSVKGRFTISRDNAKNNVYFQMNSLKPEDTAVYYCAATSTWRPSFEMDYWGQGTQVTGSS")
"low polyreactivity"
>>> result_value("QVQLVESGGGLVQAGGSLRLSCAASGRIFRGYAMGWYRQAPGKERELVATITARGGNTYYADSVKGRFTISRDNAKNTVYLQMNSLKPEETAVYYCAATFYRRYVDLGYWGQGTQVTVSS")
"high polyreactivity"
>>> result_value("QVQLVESGGGLVQAGGSLRLSCAASGSIFVAYAMGWDRQAPGKERELVAAISSSGGTTYYAYSVKGRFTISRDNAKNTVYLQMNSLKPEDTAVYYCAARDYKYYYWGQGTQVTVSS")
"high polyreactivity"
>>> result_value("QVQLVESGGGLVQAGGSLRLSCAASGSTFARNAMGWYRQAPGKERELVAAISSSGGRTYYADSVKGRFTISRDNAKNTVYLQMNSLKPEDTAVYSCAARTFGSVHSYRGGYWGQGTQVTVSS")
"high polyreactivity"
>>> result_value("QVQLVESGGGLVQAGGSLRLSCAASGIIFPGYAMGWYRQAPGKERELVAAISRSGASTYYADSVKGRFTISRDNAKNTVYLQMNSLKPEDTAVYYCAAEWYRGGEYRRYDYWGQGTQVTVSS")
"high polyreactivity"
>>> result_value("QVQLVESGGGLVQAGGSLRLSCAASGFIFTIYVMGWYRQAPGKERELVAAISKSVGRTYYADSVKGRFTISRDNAKNTVYLQMNSLKPEDTAVYYCAAVYVKYYGGSYDYWGQGTQVTVSS")
"high polyreactivity"
>>> result_value("QVQLVESGGGLVQAGGSLRLSCAASGSTFADNAMGWYRQAPGKERELVATITDGGSTNYADSVKGRFTISRDNAKNTVYLQMNSLKPEDTAVYYCNADTHARWTGVKGTYSDYDYWGQGTQVTVSS")
"low polyreactivity"
>>> result_value("QVQLVESGGGLVQAGGSLRLSCAASGITFPHYAMGWYRQAPGKERELVAAISSSGGRTYYADSVKGRFTISRDNAKNTVYFQMNSLKPEDTAVYYCNKLRYPLLPPKYYYWGQGTQVTVSS")
"high polyreactivity"
>>> result_value("QVHLVESGGGLVQAGGRLLLSCAASGLILRTYGMGWYRQAPRKERELVAVISSGGSTYYADSVNGRFTISRDNAKNTVYLQMNSLKPEDTAVYYCAVRSSWYEGDYWGQGTQVTVSS")
"low polyreactivity"
>>> result_value("QVHLVESGGGLVQAGGSLRLSCSASGSTFYRYAMGWYRQAPGKERELVAAINTGGSTNYADSVKGRFTISRDNAKNTVYLQMNSLKPEDTAVYYCAARFQYYRKYDYWGQGTQVTVSS")
"low polyreactivity"
>>> result_value("QVQLVESAGGLVQAGGSLRLSCAASGSTFVTYAMGWYRQAPGKERELVAAISSTGTGRTYYADSVKGRFTISRDNAKNTVYLQMNSLKPEDTAVYSCAADATSPLTWFDYWGQGTQVTVSS")
"low polyreactivity"

---

Test: yeast display, Sf9 membrane polyspecificity reagent, FACS + sequencing; frameworks hold sequencing errors
recorded.metric: polyreactivity (PSR sort gate)

>>> result_value("QGQLVESGGCLVQAGGSLRLSCAASGSIFSENTMGWYRQAPGKKRELVADITSGGSTNYADSVKGRFTSSRDNAKYTVYLQMNSLIPEDTEVYYCAADYNGEYDYWGQGTLVTVSS")
"low polyreactivity"
>>> result_value("QVQLVESCGGLVQAGGSLSLSCAASGSTFNHYAMGWYRQATGKEREFVAAISWSGGSTYYADYVQGRFTISRDNAKNTGYLQMNSLKPEDTAVYYCNAAVSQFSHRWRRRLTFDYWGQGTQVTVSS")
"high polyreactivity"
>>> result_value("QVQLVESGGGLVQAGGRLRITCAASGRTFKTYAMGWYRPAPGKERELVAAISRRGGSTYFADSVKGRFTISRDNAKNTVYLQMNSLKPEDTAVYYCASGNSVGLGWGQGTQVTLSS")
"high polyreactivity"
>>> result_value("QVQLVESGGGLVQAGGSLRLSCAASGSTIGFYAMGWYRQAPGKERELVAANSWTGGGTYYADSVKGRFTISRDNAKITVYLQMNSLKPEDTAVYYCARLYYFNGDFWGQGTQVTVSS")
"high polyreactivity"
>>> result_value("QVQLVESGGGLVQAGGSLRLSCAASGFTFYYYAMGWYRQAPGTERELVASITSTDSTTYADSVKGRFTISRDNAKNTVYLQMNSLKPEDTAVYYFNRLYYHWYGGLDYWGHGTQVTVSS")
"high polyreactivity"
>>> result_value("QVQLVESGGGLVQEGGSLRLSCAASGRTFYQYAMGWYRQAPGKERELVAVINGGGSTNYADSVKGRFTISRDNAKNTVYLQMNSLIPEDTAVYYCNADDVFDFDYWGQGTQVTVSS")
"low polyreactivity"
>>> result_value("QVQLVESGGGLVQAGGSLSLSCAASGRTYYYNAMGWYRQAPGKERELVAAITFSGGTTSYADSEKGRFTISRDNAKNTVYLQMNRLKPEDTEVYYCAARGYWGQGTQVTVSW")
"high polyreactivity"
>>> result_value("QVQLVESGGRLVQAGGSLRLSCAASGRTIGYYAMGWSRQAPGNEWELVAAISGSGGSTYYADSVKGRFTISRDNAKNTVYLQMNSLKPEDTAVYYCAATTQSRRYEYYYWGQGTQVTVSS")
"high polyreactivity"
>>> result_value("QVQLVESGGGLVQAGGSLRLSCAASGSIFGYNTMGWSRQAPGKERELVASISYSGGSTYYADSVKGRFTISRDNAKNTVYLQMNSLKPEDTAVYYCNTGSRYRPNRRYGYWGQGTQVTVSS")
"high polyreactivity"
>>> result_value("QVQLVESGGGLVQAGGSLRLSCAASGLIFYDNMGWYRQAPGKERELLAAISSSGGSTSYADSVKGRFTISRDNAKITVSLQMNCLKPEDTGVYYCAADSYPAYLGFVGFDYWGQGTQVTVSS")
"low polyreactivity"
>>> result_value("QVQLVESGGGLVQAGGSLRLSCAASGFTLFTYAMGWYRQAPGKERELVAAIRSGGSTYYADSVKGRFTISRDTAKNTVYLQMNSLKPEDTAVYYCNAVYRYASGKYYYWGQGTQVTVSS")
"high polyreactivity"
>>> result_value("QVQLVESGGGLVQAGGSLRLSCAASGSIFYRNAMGCYIQAPGKERELVAAITSSGVSTYYADSVKGRFTISRDNAKNTVYLQMNSLKPEDTAVYYCAARSVYTGRPYYYWGQGTQVTVSS")
"high polyreactivity"
>>> result_value("QVQLVESGGGLVQAGGSLRLSSAASGRTFQTNAMGWYRQAPGKERELVAAISSTGGSTYYADSVKGRFTISRDNAKNTVYLQMNSLKPEDTAVYYCNAGRTYRYDFWGQGTQVTVSS")
"high polyreactivity"
>>> result_value("QVQLVESGGGLVQAGGSLRLSCAASGFTYRKYALGWYRQAPGKERELVAVINIVGSTYYADSVKGRFTISRDNAKNTVYLQMYSLTPEDTAVYYCAADWSYRLKYYWYGGFKYWGQGTQVTVSS")
"high polyreactivity"
>>> result_value("QVQLVESGGGLVQAGGSLRLSCAASGRTFGRYAMGWYRQAPGKERELVAAISWSGGSTNYADSVKGRFTISRDNAKNTVYLQMISLKPEDTAVYYCAAVTTDGVYAFDYWGQGTQVTVSS")
"low polyreactivity"

---

Experiment: yeast display, Sf9 membrane polyspecificity reagent, FACS + sequencing; frameworks hold sequencing errors
recorded.metric: polyreactivity (PSR sort gate)

>>> result_value("QVQLQESGGGLVQAGGTITLGYDMGWYRQAPGKEREFVAGIDTGAITYYADSVKGRFTNSRDNAKNTVYLQMNCLKPEDTAVYYCAAIQTHTYAHSYWGQGNQVTVSS")
"high polyreactivity"
>>> result_value("QVQLVESGGGLVQAGGSLRLSCAPSGSTFYVNTMGWYRQAPGKERELVAAITATGASTYYADSVKGRFTISRDNAKNTVYVQMNSLKPEDTAVYYCNVRLRIRSGYWGQGTQVTVSS")
"high polyreactivity"
>>> result_value("HVQLVESAGGLVQAGGSLRLSCAASGSILPRYAKGWYRQAPGKERELVAAISWSGGNTYYADSVKGRFTISRDNAKNTVYFQMNSLTPEDTAVSYSAARQYDWVIQGSRVRPVHYDYWGQGTQVNVSS")
"high polyreactivity"
>>> result_value("QVQLVESRGRLVQAVGSLRLSCAASGFTFDSYPMGWYRHAPRKEMEFVAGITDLGDYTYYADSVKGRFTISRDTAKNTVFLQMKSLKPEDTEVYYCNDTTGYKHAWRCENGYWGQGTQVTVSS")
"low polyreactivity"
>>> result_value("QVQLVESGGGLVQAGGSLRLSCAASGSTYKGYAMGWYRQAPGKERELVAAISSSGGGTYYADSVKGRFTISRDNAKNTVYLQMNSLKPEDTAVYYCAATYYRGNYRTHYDYWGQGTQVTVSS")
"high polyreactivity"
>>> result_value("QVQLVESGGGLVQAGGSLRLSCAASGLTFEDNDMGWYRQAPGKERELVAAISSAGSTSYADSVKGRFTISRDNAKNTVYLQRNSLKPDDTAVYYCAKDNSPSYTPAQLDGGDDYWGQGTQVTVSS")
"low polyreactivity"
>>> result_value("QVQLVESGGGLVQAGGSLRLSCAASGSIFSWYAMGWYRQAPGKERELVAAISWSSGSTYYADSVKGRFTISRDNAKNTVYLQMNSLKPEDTAVYYCAADATYLGWYELYYWGQGTQVTVSS")
"high polyreactivity"
>>> result_value("QVQLVESGGGLVQAGGSLRLSCAASGITFRYYVMGWYRQAPGKERELVAAISWSGGSTYYADSVKGRFTISRDNAKNTVYLQMNCLKPEDTAVYYCAAYKRRSNGRYWTYDYWGQGTQVTVSS")
"high polyreactivity"
>>> result_value("QVQLVESVGGLVQAGGSLRLSCAASVFIFRSYAMGWYRQAPGKERELVASISRRGASTYYADSVKGRFTISRDNAKNTVYLQMNSLKPEDTAVYYCNADGLRGFYTGAYDYDYWGQGTQVTVSS")
"high polyreactivity"
>>> result_value("QVQLVESGGGLVQAGGSLRLSCAASGITYGYYAMGWYRQAPGKERELVATITDGGGTKYADSVKGRFTISRDNAKNTVYLQMNSLKPEDTAVYYCAAGLRHVYATEYDYWGQGTQVTVSS")
"low polyreactivity"
>>> result_value("QVQLVESGGGLVQAGGSLRLSCAASGFIFYPYAMGSYRQAPGKERELVAAITSSGGSTYYADSVKGRFTISRDNAKNTVYLQMNSLKPEDTAVYYCAAYTSYYGTIIAFRYYYWGQGTQVTVSS")
"high polyreactivity"

Measured values drawn from the nanobody polyreactivity screen of Harvey et al. (2022) for this set.
